Source of measurements: paper PMC9377102

Experiment Description: Toxicokinetics test in the satellite groups (UPLC-MS/MS of rat plasma)
Type: in vivo
Test Conditions: female, SD, rat, plasma, po, female rats, Day 28, highest dose (berberine 72.08, epiberberine 7.42, coptisine 7.42, palmatine 18.26, jatrorrhizine 2.80, columbamine 5.93 mg/kg)
Measure Name: Tmax

- Molecule: "COc1cc2c(cc1O)-c1cc3ccc(OC)c(OC)c3c[n+]1CC2 [columbamine]"
  Measure Name: "Tmax"
  Val: "1.17 h"
- Molecule: "COc1cc2c(cc1O)CC[n+]1cc3c(OC)c(OC)ccc3cc1-2 [jatrorrhizine]"
  Measure Name: "Tmax"
  Val: "1.33 h"
